These measurements were taken from patent US10829493B2.

# protocol_details: Brain penetration in rats, brain to plasma ratios (Kp,brain, Kpuu,brain)
# Format: in vivo, Sprague-Dawley rats
# experimental_context: Sprague-Dawley, rat, brain, iv, 1 mg/kg/hr, mean of 3 rats; IV infusion 1 mg/kg/hr over 24 hours, at 24 hours; read-out: Kp, brain, Mean
experimental_readout: Kp at 24 h
Just the number, please, no unit attached.

Q. Please give the measured Kp at 24 h for this compound: CCn1cc(-c2cc3c(N4CCN(c5ncc([C@@](C)(N)c6ccc(F)cc6)cn5)CC4)ncnn3c2)cn1 [Compound 63, reference compound]
A. 1.8

---

# protocol_details: Brain penetration in rats, brain to plasma ratios (Kp,brain, Kpuu,brain)
# Format: in vivo, Sprague-Dawley rats
# experimental_context: Sprague-Dawley, rat, plasma, intravenous, 1 mg/kg/hr, rat; from total mean plasma concentration and fu,p; read-out: Unbound concentration, Plasma
Listed below: concentration at 24 h values for each entry.
Express the result in ng/mL but write the number alone.

| compound | scale_unit | readout_value |
| --- | --- | --- |
| CCn1cc(-c2cc3c(N4CCN(c5ncc([C@@](C)(N)c6ccc(F)cc6)cn5)CC4)ncnn3c2)cn1 [Compound 63, reference compound] | ng/mL | 2.02 |

From here, focus on the item given below.
Q. Can you look up the measured concentration at 24 h of "C[C@](N)(c1ccc(F)cc1)c1cnc(N2CCN(c3ncnn4cc(-c5cnn(CCO)c5)cc34)CC2)nc1" for me?
A. 21.9

---

# protocol_details: Brain penetration in rats, brain to plasma ratios (Kp,brain, Kpuu,brain)
# Assay type: in vivo, Sprague-Dawley rats
# experimental_context: Sprague-Dawley, rat, brain, intravenous, 1 mg/kg/hr, individual rats (Rat 1-3); IV infusion 1 mg/kg/hr over 24 hours, at 24 hours; read-out: Brain Concentration
# Text: To understand the brain penetration, brain to plasma ratios of the compounds were obtained in Sprague-Dawley (SD) rats. In vivo equilibrium distribution between blood and brain in preclinical species such as rats is a commonly used parameter to evaluate brain penetration. […]
experimental_readout: concentration at 24 h (ng/mL)
Write the number in ng/mL without appending the unit.

Q. State the recorded concentration at 24 h for this entry: C[C@](N)(c1ccc(F)cc1)c1cnc(N2CCN(c3ncnn4cc(-c5cnn(CCO)c5)cc34)CC2)nc1 [Compound 4]
A. 152

Q. Requested read-out: concentration at 24 h. Entry: CCn1cc(-c2cc3c(N4CCN(c5ncc([C@@](C)(N)c6ccc(F)cc6)cn5)CC4)ncnn3c2)cn1 [Compound 63, reference compound]
A. 1920

---

concentration at 24 h by entry:
# protocol_details: Brain penetration in rats, brain to plasma ratios (Kp,brain, Kpuu,brain)
# Assay type: in vivo, Sprague-Dawley rats
# experimental_context: Sprague-Dawley, rat, brain, intravenous, 1 mg/kg/hr, mean of 3 rats; IV infusion 1 mg/kg/hr over 24 hours, at 24 hours; read-out: Brain Concentration (ng/mL), Mean
Quick note: number first, unit second.

| compound | concentration at 24 h |
| --- | --- |
| C[C@](N)(c1ccc(F)cc1)c1cnc(N2CCN(c3ncnn4cc(-c5cnn(CCO)c5)cc34)CC2)nc1 | 183 ng/mL |

In the following, a different compound is considered.
Q. May I ask what concentration at 24 h has been recorded for CCn1cc(-c2cc3c(N4CCN(c5ncc([C@@](C)(N)c6ccc(F)cc6)cn5)CC4)ncnn3c2)cn1 [Compound 63, reference compound] ?
A. 1700 ng/mL
